molecular target: KDR (VEGFR2) (Homo sapiens, UniProt P35968); construct: purchased Invitrogen; assay: Z'-LYTE kinase inhibition assay against KDR; assay type: biochemical; conditions: % inhibition at 1 μM, Z'-LYTE method
Sequence (P35968 20-1356): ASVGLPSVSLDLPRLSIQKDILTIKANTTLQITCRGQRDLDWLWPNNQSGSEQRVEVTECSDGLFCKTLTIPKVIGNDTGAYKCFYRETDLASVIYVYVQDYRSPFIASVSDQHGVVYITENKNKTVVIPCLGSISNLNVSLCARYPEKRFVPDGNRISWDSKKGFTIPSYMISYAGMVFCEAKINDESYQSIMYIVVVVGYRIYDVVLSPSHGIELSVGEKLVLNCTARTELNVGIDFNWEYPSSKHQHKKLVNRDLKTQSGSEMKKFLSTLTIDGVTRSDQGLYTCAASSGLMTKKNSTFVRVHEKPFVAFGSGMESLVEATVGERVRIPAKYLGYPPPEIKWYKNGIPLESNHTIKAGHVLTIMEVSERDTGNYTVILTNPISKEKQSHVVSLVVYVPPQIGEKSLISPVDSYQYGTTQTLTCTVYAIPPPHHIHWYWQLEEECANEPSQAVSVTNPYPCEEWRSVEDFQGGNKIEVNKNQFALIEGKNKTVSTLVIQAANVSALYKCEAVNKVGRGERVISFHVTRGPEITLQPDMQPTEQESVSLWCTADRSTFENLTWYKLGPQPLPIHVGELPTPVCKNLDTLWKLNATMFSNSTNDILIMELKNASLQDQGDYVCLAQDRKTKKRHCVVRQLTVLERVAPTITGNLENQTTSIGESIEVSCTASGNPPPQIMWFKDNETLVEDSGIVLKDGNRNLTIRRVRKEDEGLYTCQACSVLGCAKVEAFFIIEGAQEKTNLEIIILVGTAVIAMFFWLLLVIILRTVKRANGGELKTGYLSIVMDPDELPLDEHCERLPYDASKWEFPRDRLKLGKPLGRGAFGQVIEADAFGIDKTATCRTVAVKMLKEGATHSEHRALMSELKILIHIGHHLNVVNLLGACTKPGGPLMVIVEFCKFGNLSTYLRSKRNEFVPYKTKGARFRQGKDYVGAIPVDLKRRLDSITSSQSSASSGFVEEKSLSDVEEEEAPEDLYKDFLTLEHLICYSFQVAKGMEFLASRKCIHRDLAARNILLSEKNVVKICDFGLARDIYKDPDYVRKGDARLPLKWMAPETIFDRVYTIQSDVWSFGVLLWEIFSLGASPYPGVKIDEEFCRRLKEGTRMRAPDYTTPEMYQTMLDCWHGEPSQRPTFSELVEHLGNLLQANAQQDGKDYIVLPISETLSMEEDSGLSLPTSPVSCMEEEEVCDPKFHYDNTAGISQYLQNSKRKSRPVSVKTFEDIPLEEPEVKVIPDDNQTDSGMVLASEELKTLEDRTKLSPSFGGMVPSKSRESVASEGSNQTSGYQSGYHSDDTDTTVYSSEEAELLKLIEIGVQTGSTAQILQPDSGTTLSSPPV
Recorded inhibition at 1 µM for the following compounds
observed_property: inhibition at 1 µM

>>> print(df.to_string())
                               line_notation  data_value
 0  O=C(Nc1ccc(C(=O)c2ccc3ncc(N4CCNCC4)nc3c2)cc1)Nc1cccc(C(F)(F)F)c1   70 to 89%
 1  O=C(Nc1ccc(C(=O)c2ccc3ncc(N4CCOCC4)nc3c2)cc1)Nc1cccc(Cl)c1       < 70%
 2  O=C(Nc1ccc(C(=O)c2ccc3ncc(N4CCNCC4)nc3c2)cc1)Nc1cccc(F)c1       < 70%
 3  O=C(Nc1ccc(C(=O)c2ccc3ncc(N4CCNCC4)nc3c2)cc1)Nc1ccc(Cl)c(C(F)(F)F)c1   70 to 89%
 4  O=C(Nc1ccc(C(=O)c2ccc3ncc(N4CCOCC4)nc3c2)cc1)Nc1ccc(C(F)(F)F)cc1       < 70%
 5  O=C(Nc1ccc(F)cc1)Nc1ccc(C(=O)c2ccc3ncc(N4CCOCC4)nc3c2)cc1       < 70%
 6  N#Cc1ccc(CC(=O)Nc2ccc(C(=O)c3ccc4ncc(N5CCNCC5)nc4c3)c(F)c2)cc1C(F)(F)F       > 89%
 7  O=C(Nc1ccc(C(=O)c2ccc3ncc(N4CCNCC4)nc3c2)cc1)Nc1cccc(Cl)c1   70 to 89%
 8  N#Cc1ccc(NC(=O)Nc2ccc(C(=O)c3ccc4ncc(N5CCOCC5)nc4c3)cc2)cc1C(F)(F)F   70 to 89%
 9  N#Cc1cnc2ccc(C(=O)c3ccc(NC(=O)Nc4ccc(Cl)c(C(F)(F)F)c4)cc3F)cc2n1       < 70%
10  Cc1cc(NC(=O)Nc2ccc(C(=O)c3ccc4ncc(N5CCNCC5)nc4c3)c(F)c2)no1       < 70%
11  Cn1cc(NC(=O)Nc2ccc(C(=O)c3ccc4ncc(N5CCNCC5)nc4c3)c(F)c2)cn1       < 70%
12  O=C(Nc1ccc(F)cc1)Nc1ccc(C(=O)c2ccc3ncc(N4CCNCC4)nc3c2)cc1       < 70%
13  O=C(Nc1cccc(C(F)(F)F)c1)Nc1ccc(C(=O)c2ccc3ncc(N4CCOCC4)nc3c2)c(F)c1   70 to 89%
14  O=C(Nc1ccc(C(=O)c2ccc3ncc(N4CCOCC4)nc3c2)cc1)Nc1ccc(Cl)c(C(F)(F)F)c1   70 to 89%

###

test system: A375 cells; experiment: Inhibition of cancer cell growth, MTT or MTS assay, A375; assay type: cell-based; details: Homo sapiens, A-375, 72 h incubation
pIC50: −log10 of the molar value.
observed_property: pIC50

>>> print(df.to_string())
                              line_notation    data_value
0  N#Cc1ccc(CC(=O)Nc2ccc(C(=O)c3ccc4ncc(N5CCNCC5)nc4c3)c(F)c2)cc1C(F)(F)F        > 6.00
1  O=C(Nc1ccc(C(=O)c2ccc3ncc(N4CCOCC4)nc3c2)c(F)c1)c1ccc(Cl)cc1        < 5.30
2  N#Cc1ccc(NC(=O)Nc2ccc(C(=O)c3ccc4ncc(N5CCOCC5)nc4c3)cc2)cc1C(F)(F)F  5.30 to 6.00
3  Cn1ccc(NC(=O)Nc2ccc(C(=O)c3ccc4ncc(N5CCNCC5)nc4c3)c(F)c2)n1  5.30 to 6.00
4  O=C(Nc1ccc(C(=O)c2ccc3ncc(N4CCOCC4)nc3c2)c(F)c1)c1cccc(F)c1        < 5.30
5  N#Cc1ccc(NC(=O)Nc2ccc(C(=O)c3ccc4ncc(N5CCOCC5)nc4c3)c(F)c2)cc1C(F)(F)F  5.30 to 6.00
6  O=C(Nc1ccc(C(=O)c2ccc3ncc(N4CCOCC4)nc3c2)c(F)c1)c1ccc(Cl)c(C(F)(F)F)c1        < 5.30

###

system: A375 cells; experiment: Inhibition of cancer cell growth, MTT or MTS assay, A375; format: cell-based; details: Homo sapiens, A-375, 72 h incubation
pIC50: −log10 of the molar value.
observed_property: pIC50

                                    compound  tested_system    data_value
 0  O=C(Nc1ccc(C(=O)c2ccc3ncc(N4CCNCC4)nc3c2)cc1)Nc1cccc(Cl)c1 [Compound C11]     A375 cells  5.30 to 6.00
 1  O=C(Nc1ccc(C(=O)c2ccc3ncc(N4CCOCC4)nc3c2)cc1)Nc1ccc(C(F)(F)F)cc1 [Compound C08]     A375 cells        > 6.00
 2  O=C(Nc1ccc(C(=O)c2ccc3ncc(N4CCNCC4)nc3c2)c(F)c1)c1cccc(Cl)c1 [Compound C41]     A375 cells        > 6.00
 3  O=C(Nc1ccc(C(=O)c2ccc3ncc(N4CCNCC4)nc3c2)c(F)c1)c1ccc(Cl)cc1 [Compound C40]     A375 cells  5.30 to 6.00
 4  O=C(Nc1ccc(C(=O)c2ccc3ncc(N4CCNCC4)nc3c2)c(F)c1)c1cccc(F)c1 [Compound C39]     A375 cells  5.30 to 6.00
 5  O=C(Nc1ccc(C(=O)c2ccc3ncc(N4CCNCC4)nc3c2)cc1)Nc1ccc(C(F)(F)F)cc1 [Compound C13]     A375 cells        > 6.00
 6  O=C(Nc1cccc(F)c1)Nc1ccc(C(=O)c2ccc3ncc(N4CCNCC4)nc3c2)c(F)c1 [Compound C20]     A375 cells  5.30 to 6.00
 7  O=C(Nc1ccc(C(=O)c2ccc3ncc(N4CCOCC4)nc3c2)c(F)c1)c1cccc(C(F)(F)F)c1 [Compound C38]     A375 cells  5.30 to 6.00
 8  O=C(Nc1ccc(F)cc1)Nc1ccc(C(=O)c2ccc3ncc(N4CCNCC4)nc3c2)cc1 [Compound C10]     A375 cells  5.30 to 6.00
 9  O=C(Nc1ccc(C(=O)c2ccc3ncc(N4CCNCC4)nc3c2)cc1)Nc1ccc(Cl)c(C(F)(F)F)c1 [Compound C12]     A375 cells        > 6.00
10  O=C(Nc1ccc(Cl)cc1)Nc1ccc(C(=O)c2ccc3ncc(N4CCNCC4)nc3c2)cc1 [Compound C09]     A375 cells  5.30 to 6.00
11  O=C(Nc1ccc(C(=O)c2ccc3ncc(N4CCOCC4)nc3c2)cc1)Nc1ccc(Cl)c(C(F)(F)F)c1 [Compound C07]     A375 cells  5.30 to 6.00
12  Cc1cc(NC(=O)Nc2ccc(C(=O)c3ccc4ncc(N5CCNCC5)nc4c3)c(F)c2)no1 [Compound C33]     A375 cells  5.30 to 6.00
13  O=C(Nc1ccc(C(=O)c2ccc3nccnc3c2)cc1)Nc1cccc(C(F)(F)F)c1 [Compound C01]     A375 cells  5.30 to 6.00
14  O=C(Nc1cccc(C(F)(F)F)c1)Nc1ccc(C(=O)c2ccc3ncc(N4CCNCC4)nc3c2)c(F)c1 [Compound C21]     A375 cells        > 6.00
15  O=C(Nc1ccc(F)cc1)Nc1ccc(C(=O)c2ccc3ncc(N4CCOCC4)nc3c2)cc1 [Compound C05]     A375 cells        < 5.30
16  O=C(Nc1ccc(C(=O)c2ccc3ncc(N4CCOCC4)nc3c2)cc1)Nc1cccc(Cl)c1 [Compound C03]     A375 cells  5.30 to 6.00
17  N#Cc1cnc2ccc(C(=O)c3ccc(NC(=O)Nc4cccc(C(F)(F)F)c4)cc3F)cc2n1 [Compound C29]     A375 cells  5.30 to 6.00
18  O=C(Nc1cccc(C(F)(F)F)c1)Nc1ccc(C(=O)c2ccc3ncc(N4CCOCC4)nc3c2)c(F)c1 [Compound C24]     A375 cells  5.30 to 6.00
19  O=C(Nc1ccc(C(=O)c2ccc3nccnc3c2)cc1)Nc1cccc(F)c1 [Compound C02]     A375 cells  5.30 to 6.00
20  O=C(Nc1ccc(C(=O)c2ccc3ncc(N4CCNCC4)nc3c2)cc1)Nc1cccc(F)c1 [Compound C19]     A375 cells  5.30 to 6.00
21  N#Cc1ccc(NC(=O)Nc2ccc(C(=O)c3ccc4ncc(N5CCNCC5)nc4c3)cc2)cc1C(F)(F)F [Compound C16]     A375 cells        > 6.00
22  O=C(Nc1ccc(C(=O)c2ccc3ncc(N4CCOCC4)nc3c2)c(F)c1)c1cccc(Cl)c1 [Compound C37]     A375 cells        < 5.30

###

Recorded inhibition at 1 µM for the following compounds
biological target: KDR (VEGFR2) (Homo sapiens, UniProt P35968); construct: purchased Invitrogen; assay: Z'-LYTE kinase inhibition assay against KDR; assay type: biochemical; conditions: % inhibition at 1 μM, Z'-LYTE method
observed_property: inhibition at 1 µM

                               line_notation  data_value
 0  Cn1ccc(NC(=O)Nc2ccc(C(=O)c3ccc4ncc(N5CCNCC5)nc4c3)c(F)c2)n1       < 70%
 1  O=C(Nc1ccc(Cl)cc1)Nc1ccc(C(=O)c2ccc3ncc(N4CCOCC4)nc3c2)cc1       < 70%
 2  O=C(Nc1ccc(C(=O)c2ccc3ncc(C4CCNCC4)nc3c2)cc1)Nc1ccc(F)c(C(F)(F)F)c1       < 70%
 3  N#Cc1ccc(NC(=O)Nc2ccc(C(=O)c3ccc4ncc(N5CCOCC5)nc4c3)c(F)c2)cc1C(F)(F)F   70 to 89%
 4  N#Cc1cnc2ccc(C(=O)c3ccc(NC(=O)Nc4cccc(C(F)(F)F)c4)cc3F)cc2n1       < 70%
 5  O=C(Nc1ccc(F)cc1)Nc1ccc(C(=O)c2ccc3ncc(N4CCOCC4)nc3c2)c(F)c1       < 70%
 6  O=C(Nc1ccc(C(=O)c2ccc3nccnc3c2)cc1)Nc1cccc(F)c1       < 70%
 7  O=C(Nc1ccc(C(=O)c2ccc3ncc(N4CCNCC4)nc3c2)cc1)Nc1ccc(C(F)(F)F)cc1       < 70%
 8  O=C(Nc1cccc(F)c1)Nc1ccc(C(=O)c2ccc3ncc(N4CCNCC4)nc3c2)c(F)c1       < 70%
 9  O=C(Nc1ccc(C(=O)c2ccc3ncc(N4CCOCC4)nc3c2)cc1)Nc1ccc(F)c(C(F)(F)F)c1   70 to 89%
10  O=C(Nc1cccc(F)c1)Nc1ccc(C(=O)c2ccc3ncc(N4CCOCC4)nc3c2)c(F)c1       < 70%
